Taken from a melting point compilation (Tetko et al.; mined from patent text by program, amines drawn as free bases though some values may be those of a salt).

Some molecules, each annotated with its measured melting point.

> print(dat)
                                   molecule       measured
1                    CC(=O)Nc1ccc(O)c(C)c1C  184 to 185 °C
2  O=C(NCCO)c1cccc(-c2ccc3[nH]cc(-c4ccc(Cl)cc4Cl)c3c2)c1  140 to 141 °C
3  O=C(c1ccc(Cl)c([N+](=O)[O-])c1)c1cnc(NC2CCCCC2)s1  194 to 198 °C
4  CCOC(=O)COc1cc(C(F)(F)F)c2c(=O)c(-c3ccccc3)coc2c1  139 to 140 °C
5  CCCCCCCCCCOc1cc(OCCCCCCCCCC)cc(C(=O)C(=O)N(CC(=O)O)CC(=O)O)c1    76 to 78 °C

Lab note: measured melting point of COC(=O)C(Cc1ccccc1)Oc1ccc2cc(CN(C)C(=O)c3oc4ccccc4c3CCc3ccccc3)ccc2c1Br (configuration not stated) was 29 to 32 °C

Lab note: measured melting point of CCOc1cccc(-c2cc(F)c(NC(=O)c3ccccc3CO)c(Cl)c2)c1 was 139 to 142 °C

Lab note: measured melting point of O=C(CCc1ccccc1)Nc1ccc(C(=O)NN=C2C(=O)Nc3ccc(I)cc32)cc1 was 297 °C

Lab note: measured melting point of O=C1CCCc2c1cccc2N1CCN(CCCCOc2ccc3ccc(=O)[nH]c3n2)CC1 was 158 to 160 °C

Lab note: measured melting point of NC(=O)c1c(Cl)c(-c2ccccc2)n2c1CN(C(=O)Nc1ccc(C(=O)O)cc1)CC2 was 281 to 283 °C
